The reported numbers originate from ChEMBL document CHEMBL4004801.

# Tested on: BV-2
# Test method notes: Inhibition of LPS-induced iNOS expression in mouse BV2 cells at 20 uM pretreated for 15 mins followed by LPS-stimulation after 24 hrs by western blot analysis relative to control
# Format: functional
Consider the following molecules and their measured fold change (FC) readings.
In your answer, state the number alone without any accompanying words.

# count of solved cases: 8
# Molecule, Readout label, Result
rows = [
    ("CC1=C2[C@@H](C=C3CCC[C@H](C)[C@@]3(C)[C@H]2O)OC1=O", "fold change (FC)", 3.2),
    ("CCCCC1OC(=O)c2c(O)cccc21 (centres undefined)", "fold change (FC)", 4.3),
    ("C=C(C)[C@@H]1Cc2cc(C=O)ccc2O1", "fold change (FC)", 3),
    ("CC1=C2[C@@H](C=C3C=CC[C@H](C)[C@@]3(C)[C@H]2O)OC1=O", "fold change (FC)", 4.5),
    ("C=C(C)[C@@H]1Cc2cc(CO)ccc2O1", "fold change (FC)", 1.9),
    ("O=C1C[C@H](O)Cc2cc(O)cc(O)c21", "fold change (FC)", 2.9),
    ("C=C(CO)C1=C[C@@]2(C)C(=CC1=O)CCC[C@@H]2C", "fold change (FC)", 3.6),
    ("CCCCCc1cccc(O)c1CO", "fold change (FC)", 3.4),
]

Now look at this one.
Tell me the measured fold change (FC) of `C=C1CO[C@@H]2C=C3CCC[C@H](C)[C@@]3(C)C[C@@]12O` , please.
1.8

----------
Consider the following compounds and their measured pIC50 readings.
# Tested on: BV-2
# Test method notes: Inhibition of LPS-induced COX-2 expression in mouse BV2 cells pretreated for 15 mins followed by LPS-stimulation after 24 hrs by western blot analysis
# Assay type: functional, cell-based
Reminder that pIC50 means the negative base-10 logarithm of the concentration expressed in mol/L.

# Entry smiles, Result
measured = [
    ("C=C1CO[C@@H]2C=C3CCC[C@H](C)[C@@]3(C)C[C@@]12O", 4.78),
]

Now look at this one.
Tell me the measured pIC50 of `C=C(C)[C@@H]1Cc2cc(CO)ccc2O1` , please.
4.90
